B1: HDV Ribozyme (parent)
chain: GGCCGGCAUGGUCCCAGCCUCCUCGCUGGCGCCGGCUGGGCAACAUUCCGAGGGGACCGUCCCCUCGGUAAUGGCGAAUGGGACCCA

# Variants of: B1
# TEST DESCRIPTION: self-cleavage, relative activity (ratio to wild type); higher = more cleavage; co-transcriptional
Label MET when self-cleavage is at or above 0.3; anything below gets NOT MET.

Query string: Determine whether measured self-cleavage meets or exceeds 0.3 for C15A C30A
Result string: MET

Query string: One more variant: C19U U60A
Result string: NOT MET

Query string: Then this variant: A8G A77G
Result string: MET

Query string: Same question, U65C G82U this time
Result string: MET

Query string: Another: C26U G28U
Result string: NOT MET

Query string: And what about the variant U12G C84A ?
Result string: MET

Query string: Subsequent entry: C21A C30U
Result string: NOT MET

Query string: # repeat for C7G C24A
Result string: NOT MET

***
Query string: Is reported self-cleavage greater than or equal to 0.3 here: U9C U46A
Result string: MET

Query string: Moving on to the next variant: U9G U23G
Result string: MET

Query string: Next entry: C22U G81U
Result string: NOT MET
